Each item that follows carries a reported koff.
Biological target: T1, human IL-33 (R&D Systems, #3625-IL-010/CF) (human, UniProt O95760 112-270)
T1 construct: Commercial recombinant protein; also called hIL-33; interleukin-33
T1 sequence (looked up): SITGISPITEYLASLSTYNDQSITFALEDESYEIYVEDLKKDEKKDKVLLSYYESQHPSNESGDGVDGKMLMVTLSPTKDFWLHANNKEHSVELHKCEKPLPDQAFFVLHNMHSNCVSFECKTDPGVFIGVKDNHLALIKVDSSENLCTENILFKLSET
Assay: SPR 37C pH7.4, mAb captured
Entry rule: numbers only, all in s⁻¹.

Here is how some binders turned out for koff.
binder="H4H9672P (antibody, human IgG4, V domains shown, Human IgG4 Fc (H4H)) VH: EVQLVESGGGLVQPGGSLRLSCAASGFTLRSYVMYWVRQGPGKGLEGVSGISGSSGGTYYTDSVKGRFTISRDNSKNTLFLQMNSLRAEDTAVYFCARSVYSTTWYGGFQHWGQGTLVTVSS VL: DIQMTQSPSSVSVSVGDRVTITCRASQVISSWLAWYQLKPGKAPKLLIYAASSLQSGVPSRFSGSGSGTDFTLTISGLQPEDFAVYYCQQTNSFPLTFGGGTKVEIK" measure=koff measurement=0.00115
binder="H4H9666P (antibody, human IgG4, V domains shown, Human IgG4 Fc (H4H)) VH: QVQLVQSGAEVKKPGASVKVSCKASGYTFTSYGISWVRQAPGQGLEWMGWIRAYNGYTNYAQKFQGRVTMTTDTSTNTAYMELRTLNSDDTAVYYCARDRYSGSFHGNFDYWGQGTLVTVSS VL: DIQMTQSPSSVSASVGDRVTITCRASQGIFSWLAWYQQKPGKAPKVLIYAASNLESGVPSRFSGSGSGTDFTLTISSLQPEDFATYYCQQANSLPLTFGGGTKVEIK" measure=koff measurement=0.00077
binder="H4H9640P (antibody, human IgG4, V domains shown, Human IgG4 Fc (H4H)) VH: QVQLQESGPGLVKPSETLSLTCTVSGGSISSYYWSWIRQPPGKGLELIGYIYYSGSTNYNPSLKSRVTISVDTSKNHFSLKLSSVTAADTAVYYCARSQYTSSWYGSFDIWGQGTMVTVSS VL: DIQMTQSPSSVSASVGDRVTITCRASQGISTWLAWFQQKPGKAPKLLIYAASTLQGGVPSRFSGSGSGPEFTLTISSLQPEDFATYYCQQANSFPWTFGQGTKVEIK" measure=koff measurement=0.000573

Now, please, on to the next binder.
Incoming: Given the binder H4H9676P (antibody, human IgG4, V domains shown, Human IgG4 Fc (H4H)) VH: EVQLVESGGGLVQPGGSLRLSCSASGFTFSSYAMNWVRQAPGKGLEWVTAISGSGGGTYYADSVKGRFTISRDNSKNSLFLQLNSLRAEDTAVYYCAKQTYTSSWYGGFDIWGQGTMVTVSS VL: DIQMTQSPSSVSASVGDRVTITCRASQGFSSWLAWYQQIPGKAPKLLIYAASRLQSGVPSRFRGSGSGTDFTLTISSLQPEDFATYYCQQANSFPLTFGGGTKVEIK , write its reported koff.
Outgoing: 0.00128

The reported measurements were obtained from patent US20160362487A1.
